Reference source: patent US20160304615A1

- EXPERIMENTAL_SYSTEM: T1, EGFR-mFc (human)
- T1 construct: Soluble dimeric protein
- EXPERIMENT_SUMMARY: SPR 37C, receptor-capture; 37 C, receptor-capture format (EGFR-mFc captured)
- Description: Measurements were conducted on a T100 BIACORE™ instrument. […] In the receptor-capture format, either EGFRvIII-mFc or EGFR-mFc, was captured on the BIACORE™ chip and the respective antibodies flowed over. Kinetic association (kₐ) and dissociation (kd) rate constants were determined by processing and fitting the data to a 1:1 binding model using Scrubber 2.0 curve fitting software. […]
PROPERTY_MEASURED: koff (s⁻¹)

BINDER: H1H1912N (antibody, human IgG1, V domains shown, Human IgG1 Fc; also called H2M1912N (same variable domains)) VH: EVQLVESGGGLVQPGRSLRLSCAASGFTFDDYAMHWVRQVPGKGLEWVSGISWNSGSIGYADSVKGRFTISRDNAKNSLYLQMNSLRAEDTALYYCAKDIHDYGKDYYYYYGMDVWGQGTTVTVSS VL: EIALTQSPGTLSLSPGERATLSCRASQSVSSTYLAWYQQKPGQAPRLLIYGASSRATGIPDRFSGSGSGTDFTLTISRLEPEDFAVYYCQQYDSSPITFGQGTRLEIK
PROPERTY_MEASURED: koff
UNIT_ABBREV: s⁻¹
LIMIT_SIGN: =
QUANTITATIVE_READOUT: 0.000914

BINDER: H1H1913N (antibody, human IgG1, V domains shown, Human IgG1 Fc; also called H3M1913N (same variable domains)) VH: QVQLQQWGAGLLKPSETLSLTCAVYGGSFSGDYWSWIRQSPGKGLEWIGEINHSGSTNYNPSLKSRVTISIDTSKNQFSLKLSSVTAADTAVYYCARGGGDYYYGMDVWGLGTTVTVSS VL: AIQMTQSPSSLSASVGDRVTITCRASQGIGNDLGWYQQKPGKAPNLLIYATSSLQSGVPSRFSGSGSGTDFTLTISSLQPEDFATYYCLQDYNYPWTFGQGTKVEIK
PROPERTY_MEASURED: koff
UNIT_ABBREV: s⁻¹
LIMIT_SIGN: ≤
QUANTITATIVE_READOUT: 1e-06

BINDER: H1H1915N (antibody, human IgG1, V domains shown, Human IgG1 Fc; also called H2M1915N (same variable domains)) VH: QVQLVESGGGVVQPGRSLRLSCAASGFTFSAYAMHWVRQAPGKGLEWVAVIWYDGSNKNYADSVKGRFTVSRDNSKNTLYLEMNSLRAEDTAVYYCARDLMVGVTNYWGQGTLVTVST VL: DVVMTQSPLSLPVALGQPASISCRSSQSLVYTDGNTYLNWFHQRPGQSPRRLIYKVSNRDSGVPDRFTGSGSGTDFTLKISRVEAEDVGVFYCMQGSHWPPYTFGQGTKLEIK
PROPERTY_MEASURED: koff
UNIT_ABBREV: s⁻¹
LIMIT_SIGN: =
QUANTITATIVE_READOUT: 0.00801
